All values here come from patent US20210388087A1.

Biological target: human CD3 ed (human, UniProt P07766 23-126; P04234 22-105, limits assumed)
Sequence (P07766 23-126 limits assumed, chain 1 of 2): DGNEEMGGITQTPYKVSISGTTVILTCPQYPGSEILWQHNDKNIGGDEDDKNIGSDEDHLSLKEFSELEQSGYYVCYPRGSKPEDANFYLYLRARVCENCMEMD
Sequence (P04234 22-105 limits assumed, chain 2 of 2): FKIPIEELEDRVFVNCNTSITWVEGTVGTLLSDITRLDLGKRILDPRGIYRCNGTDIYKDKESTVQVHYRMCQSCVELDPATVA
Assay: SPR Biacore T200, IgG captured on protein A, 25 C;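 also: antigens diluted in ACES running buffer at pH 7.4 were flowed over antibodies held on a CM3 chip bearing amine-coupled protein A, with buffer alone serving as blank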
readout: koff (s⁻¹)

binder: dBBDu189/L119 (antibody, V domains shown, IgG format; constant regions not specified) VH: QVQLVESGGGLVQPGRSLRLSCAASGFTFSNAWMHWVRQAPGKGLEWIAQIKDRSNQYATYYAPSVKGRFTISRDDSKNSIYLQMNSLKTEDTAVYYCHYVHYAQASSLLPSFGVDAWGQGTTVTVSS VL: DIVMTQSPLSLPVTPGEPASISCTASQELVHINRFIFLHWYQQKPGQAPRLLIYKVSNRFIGVPDRFSGSGSGTDFTLKISRVEAEDVGVYYCAQGSQVPFTFGQGTKLEIK
readout: koff
reported.value: 0.0258
